Source listed as patent US20220411492A1.

Experimental target: human Claudin 18.2 (hCLDN18.2) (human, UniProt P56856-2 1-261)
Procedure details: cell-based or functional assay
Metric name: CDC Maximum lysis (%)

Name the recorded CDC Maximum lysis (%) for ch-287F12 (antibody, V domains shown, also called chimeric antibody of clone 287F12) VH: QIQLVQSGPELKRPGETVRISCKASGFTFTTAGMHWVQKMAGKGLKWLGWTNTHSGEPKYAEDFKGRFAFSLDTSGSDAYLQIGNLKYEDAATYFCAKWGRGNALDYWGQGTSVTVSS VL: DIVMTQSPSSLTVTAGEKVTMTCKSSQSLLNSGNQKNYLTWYQQKPGQPPKLLIYWASTRESGVPDRFTGSGSGTDFTLTINTVQAEDLAVYYCQNTYSYPLTFGGGTKLELR .
96.3%

Fill in the blank: the reported CDC Maximum lysis (%) of ch-252F11 (antibody, V domains shown, also called chimeric antibody of clone 252F11) VH: EIQLVESGGGLVRPGGSLKLSCAASGFSFKNYVMSWVRQSPERRLEWVAEIRTGGDYTYYVDTVTGRFTISRDNAKNTLYLEMTSLRSEDTATYYCARVGYGNSLDYWGQGTTLTVSS VL: DIVMTQSPSSLTVTAGEKVTMSCKSSQSLLNSGNQKNYLTWYQQKPGQPPKLLIYWASTRESGVPDRFTGSGSGTDFTLTISSVQAEDLAVYSCQNNYFYPLTFGAGTELELK is ____.
95.4%

Given the binder ch-229C9 (antibody, V domains shown, also called chimeric antibody of clone 229C9) VH: DVQLQESGPDLVKPSQSLSLICTVTGYSITSGYSWHWIRQFPGNKLEWMGYIHYSGGTNYNPSLKSRISFTRDTSKNQFFLQLNSVTTEDTATYYCARLERGNSFAYWGQGTLVTVSA VL: DIVMTQSPSSLTVTAGEKVTMSCKSTQSLLNSGNQKNYLTWYQQKPGQPPKLLIYWASTRESGVPDRFTGSGSGTDFTLTISSLQAEDLAVYYCQNDYFYPFTFGSGTKLEIK , what is its reported CDC Maximum lysis (%)?
96.1%
